Taken from PubChem BioAssay (NCATS).

assay: Primary qHTS for inhibitors of SARS-S pseudo-typed particle cell entry (AID 1479145); conditions: SARS-S pseudotyped particle cell entry, luciferase reporter; series mostly up to 57.1 µM; also: nearly all actives have a fitted effect of over 45% in size
Records with an inconclusive call do not appear. The source made the active and inactive calls. Calls follow the shape of the full dose curve.
Test readout: outcome

CC(=O)Oc1ccc(C(=C2CCCCC2)c2ccc(OC(C)=O)cc2)cc1 = inactive
CCOC(=O)c1cccc(N)c1 = inactive
CCN(CC)CC(=O)Nc1c(C)cccc1C = inactive
CN1C[C@H](C(=O)N[C@]2(C)O[C@@]3(O)[C@@H]4CCCN4C(=O)[C@H](Cc4ccccc4)N3C2=O)C[C@@H]2c3cccc4[nH]cc(c34)C[C@H]21 = inactive

Q) // outcome lookup, key: CC(=O)N(CC(=O)N(C)C)c1ccccc1
A) inactive

###

test: qHTS for Inhibitors of the Functional Ribonucleoprotein Complex (vRNP) of Lassa (LASV) Arenavirus: LASV Primary Screen - GLuc reporter signal (AID 1347082); details: LASV minigenome vRNP, Gaussia luciferase reporter; series mostly up to 57.5 µM; also: nearly all actives have a fitted effect of over 60% in size
Records with an inconclusive call do not appear. Active and inactive are the calls of the source. The call rests on the fitted dose curve; tested in HEK293 reporter line. Peptide text beside a SMILES is read from it.
Test readout: Potency

Sample answers from the record:
CN(C)C(=O)CNC(=O)Cc1ccccc1 = inactive
CC(=O)N[C@@H](CO)C(=O)N[C@@H](CC(=O)O)C(=O)N[C@@H](CCCCN)C(=O)N1CCC[C@H]1C(=O)O (Ac-SDKP-OH) = inactive
C=CCN1CC[C@]23CCCC[C@H]2[C@H]1Cc1ccc(O)cc13 = inactive
C1CN2CCC1CC2 = inactive
CC1(C)S[C@@H]2[C@H](N=CN3CCCCCC3)C(=O)N2[C@H]1C(=O)O = inactive
CN(CCCN1c2ccccc2CCc2ccccc21)CC(=O)c1ccc(Cl)cc1 = inactive
O=C1OC2(c3ccc(O)cc3Oc3cc(O)ccc32)c2ccccc21 = inactive
CN(C)CCCN1c2ccccc2Sc2ccccc21 = inactive
CN(C(=O)CN(CCO)CC(=O)N(C)C(C)(C)Cc1ccccc1)C(C)(C)Cc1ccccc1 = inactive
O=C(O)Cc1ccc2c(c1)C(=O)c1ccccc1CO2 = inactive

Q) Return reported Potency; argument: CO/N=C(\C(=O)O)c1csc(NC(=O)CCl)n1
A) inactive

Q) Repeat with CC1Sc2c(C(=O)O)c(=O)c3cc(F)c(N4CCNCC4)cc3n21 (stereo not given)
A) inactive

Q) Same thing, different molecule: CCOCC(O)COc1ccc(NC(=O)CC[S+](C)C)cc1 (stereo not given)
A) inactive

###

Assay: qHTS of pediatric cancer cell lines to identify multiple opportunities for drug repurposing: Primary screen for SJ-GBM2 cells (AID 1347091)
Details: SJ-GBM2 viability, CellTiter-Glo luminescence, 48 h; series mostly up to 46 µM
Method: Drug repurposing or repositioning has been offered as a strategy for drug development in oncology programs. […] [1] Shen, M et al. Quantitative high-throughput phenotypic screening of pediatric cancer cell lines identifies multiple opportunities for drug repurposing. […] Cells were assayed in growth media at a density of 500-1,000 cells/well. […] After a 15 min incubation at room temperature, samples were analyzed for luminescence intensity using a ViewLux High-throughput CCD imager equipped with clear filters.
Inconclusive results are not listed. The source made the active and inactive calls. Calls follow the shape of the dose curve; as a rule, active = well fitted cell-killing curve with a large enough effect; inconclusive = small, poorly fitted or top-dose-only effect; inactive = no such curve, though single readings can be large or run the other way.
Outcomes you can answer with include only these: T for active, F for inactive

Example results:
CCOC(=O)C(c1c(O)c2ccccc2oc1=O)c1c(O)c2ccccc2oc1=O = F
CCC1(c2ccccc2)CCC(=O)NC1=O (centres undefined) = F

Now take the following compound into account.
Q) For CCCC(C)C1(CC)C(=O)N=C(S)NC1=O (centres undefined) , what call appears in the results of this test?
A) F
